# pIC50 per record follows
# Study System: Human DGAT1 (Homo sapiens)
# Construct: made in house; host or cells: Pichia pastoris (printed 'Pichia pastris'), vector pPICZA; the membrane fraction served as enzyme source
# Sequence (O75907 1-488): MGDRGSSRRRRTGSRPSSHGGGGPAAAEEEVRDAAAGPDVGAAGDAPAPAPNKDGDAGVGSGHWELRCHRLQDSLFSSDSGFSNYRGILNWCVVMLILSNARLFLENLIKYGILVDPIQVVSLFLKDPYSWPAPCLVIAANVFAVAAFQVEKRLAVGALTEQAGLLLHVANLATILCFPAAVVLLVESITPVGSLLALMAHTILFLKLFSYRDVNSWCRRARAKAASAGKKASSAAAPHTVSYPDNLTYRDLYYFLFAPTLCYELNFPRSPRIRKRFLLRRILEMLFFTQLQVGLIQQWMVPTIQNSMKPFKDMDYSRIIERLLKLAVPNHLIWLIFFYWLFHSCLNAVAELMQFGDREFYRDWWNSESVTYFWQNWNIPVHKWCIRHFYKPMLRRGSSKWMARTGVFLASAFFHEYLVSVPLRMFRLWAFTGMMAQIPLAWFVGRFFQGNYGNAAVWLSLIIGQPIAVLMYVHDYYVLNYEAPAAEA
# Protocol Notes: DGAT1 Inhibitory Activity Test ([14C]-oleoyl-CoA, DGAT1-expressed yeast membrane fraction)
# Type: biochemical
# Test Parameters: Table 5, room temperature, 30 minutes
// pIC50 is dimensionless: -log10 of concentration (M)

O=C(NC1(C(=O)N[C@@H]2CC(=O)c3ccccc3N(Cc3cc(C(F)(F)F)cc(C(F)(F)F)c3)C2=O)CC1)c1ccc(F)c(F)n1 [Example 8]	7.07
CC(C)(C)OC(=O)NC1(C(=O)NC2CCc3ccccc3N(Cc3ccc(OC(F)(F)F)cc3)C2=O)CCCC1 (single isomer, unassigned) [Example 47 Enantiomer A]	6.82
CC(C)(C)OC(=O)NC1(C(=O)NC2CCc3ccccc3N(Cc3ccc(OC(F)(F)F)cc3)C2=O)CCC1 (single isomer, unassigned) [Example 46 Enantiomer B]	7.85
CC(C)(C)OC(=O)NC1(C(=O)N[C@H]2CC(=O)c3ccccc3N(Cc3ccc(-c4ccccc4)cc3)C2=O)CC1 [Example 21]	7.62
O=C1C(NC(=O)C2(NC(=O)C3(C(F)(F)F)CC3)CC2)CCc2cc(OC(F)(F)F)ccc2N1Cc1cc(C(F)(F)F)cc(C(F)(F)F)c1 (single isomer, unassigned) [Example 41 Enantiomer B]	6.07
CC(C)(C)OC(=O)NC1(C(=O)NC2CCc3ccccc3N(Cc3ccc(OC(F)(F)F)cc3)C2=O)CCCC1 (single isomer, unassigned) [Example 47 Enantiomer B]	7.68
O=C1C(NC(=O)C2(NC(=O)C3(C(F)(F)F)CC3)CC2)CCc2cc(OC(F)(F)F)ccc2N1Cc1cc(C(F)(F)F)cc(C(F)(F)F)c1 (single isomer, unassigned) [Example 41 Enantiomer A]	6.86

Next up:
Quick one: pIC50 of CC(C)(C)OC(=O)NC1(C(=O)NC2CCc3ccccc3N(Cc3ccc(OC(F)(F)F)cc3)C2=O)CCC1 (single isomer, unassigned) [Example 46 Enantiomer A] ? 6.72
